- tested-target: Melanocyte-stimulating hormone receptor (Homo sapiens, UniProt Q01726)
- Sequence (Q01726 whole entry, looked up): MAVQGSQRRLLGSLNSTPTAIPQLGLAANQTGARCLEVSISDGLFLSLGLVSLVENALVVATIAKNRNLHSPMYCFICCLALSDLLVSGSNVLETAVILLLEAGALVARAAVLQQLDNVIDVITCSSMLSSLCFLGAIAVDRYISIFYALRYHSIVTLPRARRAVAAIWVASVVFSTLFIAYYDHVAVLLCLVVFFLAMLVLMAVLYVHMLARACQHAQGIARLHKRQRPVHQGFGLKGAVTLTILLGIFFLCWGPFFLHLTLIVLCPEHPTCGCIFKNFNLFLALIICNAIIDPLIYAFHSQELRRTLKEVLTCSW
- test-method-notes: Agonist activity at human melanocortin 1 receptor expressed in HEK293 cells assessed as cAMP accumulation at 10 uM realtive to MT2
- Type: functional, cell-based
As shown below, each of these molecules has a reported Activity value.
Write the answer as a number in %, unit excluded.

Consider the following illustrative entries.
>>> measured("N=C(N)NCCC[C@@H]1NC(=O)[C@@H](Cc2ccccc2)NC(=O)[C@H](Cc2cnc[nH]2)NC(=O)c2cc([N+](=O)[O-])ccc2SC[C@@H](C(N)=O)NC(=O)[C@H](Cc2c[nH]c3ccccc23)NC1=O")
100
>>> measured("N=C(N)NCCC[C@@H]1NC(=O)[C@@H](Cc2ccccc2)NC(=O)[C@@H]2CCCN2C(=O)c2cc([N+](=O)[O-])ccc2SC[C@@H](C(N)=O)NC(=O)[C@H](Cc2c[nH]c3ccccc23)NC1=O")
0
>>> measured("N=C(N)NCCC[C@H]1NC(=O)[C@@H](Cc2ccccc2)NC(=O)[C@H](Cc2cnc[nH]2)NC(=O)c2cc([N+](=O)[O-])ccc2SC[C@@H](C(N)=O)NC(=O)[C@H](Cc2c[nH]c3ccccc23)NC1=O")
0
>>> measured("N=C(N)NCCC[C@@H]1NC(=O)[C@@H](Cc2ccccc2)NC(=O)[C@H](Cc2cnc[nH]2)NC(=O)c2cc([N+](=O)[O-])ccc2SC[C@@H](C(N)=O)NC(=O)[C@H](Cc2ccc3ccccc3c2)NC1=O")
110

Write down Activity measured for item NCCCC[C@@H]1NC(=O)[C@@H](Cc2ccccc2)NC(=O)[C@H](Cc2cnc[nH]2)NC(=O)c2cc([N+](=O)[O-])ccc2SC[C@@H](C(N)=O)NC(=O)[C@H](Cc2c[nH]c3ccccc23)NC1=O 0

Write down Activity measured for item N=C(N)NCCC[C@@H]1NC(=O)[C@@H](Cc2ccccc2)NC(=O)[C@H](Cc2cnc[nH]2)NC(=O)c2cc([N+](=O)[O-])ccc2SC[C@@H](C(N)=O)NC(=O)[C@@H](Cc2c[nH]c3ccccc23)NC1=O 105

Write down Activity measured for item N=C(N)NCCC[C@@H]1NC(=O)[C@@H](Cc2ccccc2)NC(=O)C2(Cc3ccccc3C2)NC(=O)c2cc([N+](=O)[O-])ccc2SC[C@@H](C(N)=O)NC(=O)[C@H](Cc2c[nH]c3ccccc23)NC1=O 52

Write down Activity measured for item NCCC[C@@H]1NC(=O)[C@@H](Cc2ccccc2)NC(=O)[C@H](Cc2cnc[nH]2)NC(=O)c2cc([N+](=O)[O-])ccc2SC[C@@H](C(N)=O)NC(=O)[C@H](Cc2c[nH]c3ccccc23)NC1=O 0

Write down Activity measured for item N=C(N)NCCC[C@@H]1NC(=O)[C@@H](Cc2ccccc2)NC(=O)[C@H](Cc2cnc[nH]2)NC(=O)c2cc([N+](=O)[O-])ccc2SC[C@@H](C(N)=O)NC(=O)[C@@H](Cc2ccc3ccccc3c2)NC1=O 0
